measurementProtocol: Binding affinity to wild type N-terminal polyhis-tagged TEV protease cleavage site fused Mycobacterium tuberculosis ICL1 expressed in Escherichia coli BL21 (DE3) in presence of MgCl2 by NMR binding analysis
assayReadout: Kd (µM)
Expressed in µM, but write only the number.

QUERY: Determine its reported Kd: C=C(CC(=O)O)C(=O)O [ITACONATE]
RESULT: 112

* * *

measurementProtocol: Binding affinity to wild type N-terminal polyhis-tagged TEV protease cleavage site fused Mycobacterium tuberculosis ICL1 expressed in Escherichia coli BL21 (DE3) in presence of Mg2+ and glyoxylate by NMR binding analysis
assayReadout: Kd (µM)
Expressed in µM, but write only the number.

QUERY: Determine its reported Kd: C=C(CC(=O)O)C(=O)O [ITACONATE]
RESULT: 123
